tested on: Saccharomyces cerevisiae; assay: Inhibition of baker's yeast alpha-glucosidase at 300 uM using p-nitrophenyl alpha-D-glucopyranoside as substrate preincubated for 15 mins followed by substrate addition measured for 20 mins by spectrophotometric analysis relative to control
MEASUREMENT_TYPE: inhibition (%)

Check out these entries, answers already filled in.
O=C(Cn1c(-c2nc3ccc([N+](=O)[O-])cc3n2CC(=O)NNC(=S)NCc2ccccc2)nc2ccc([N+](=O)[O-])cc21)NNC(=S)NCc1ccccc1 : 100
NNC(=O)Cn1c(-c2nc3ccc([N+](=O)[O-])cc3n2CC(=O)NN)nc2ccc([N+](=O)[O-])cc21 : 100
O=[N+]([O-])c1ccc2nc(-c3nc4ccc([N+](=O)[O-])cc4[nH]3)[nH]c2c1 : 100

a. C[C@H]1O[C@H](O[C@H]2[C@H](O)[C@@H](O)[C@@H](O[C@H]3[C@H](O)[C@@H](O)C(O)O[C@@H]3CO)O[C@@H]2CO)[C@H](O)[C@@H](O)[C@@H]1N[C@H]1C=C(CO)[C@@H](O)[C@H](O)[C@H]1O (stereo partly specified)
b. O=C(Cn1c(-c2nc3ccccc3n2CC(=O)NNC(=S)Nc2ccccc2)nc2ccccc21)NNC(=S)Nc1ccccc1
c. O=[N+]([O-])c1ccc2nc(-c3nc4ccc([N+](=O)[O-])cc4n3Cc3nnc(S)n3-c3ccccc3)n(Cc3nnc(S)n3-c3ccccc3)c2c1
Please list these compounds in decreasing order of inhibition. Sort the labels as requested; that list is your answer.
a, b, c

Value source: ChEMBL document CHEMBL4431388
